Cited source for all entries: patent US9695155B2

# Test system: morningglory
# ASSAY TEXT: Test A preemergence
# Assay type: in vivo, Ipomoea spp.
# CONDITION INFO: 125 g ai/ha, 0 to 100 scale where 0 is no effect and 100 is complete control
MEASURED QUANTITY: Morningglory plant response rating
Give the figure only, with no unit attached.

COMPOUND	TARGET OF ASSAY	Morningglory plant response rating
Fc1cnc(Oc2ccccc2-n2cc(Cl)cn2)nc1 [Compound 11]	morningglory	30
FC(F)(F)c1cnn(-c2ccccc2Oc2ncc(Cl)cn2)c1 [Compound 16]	morningglory	30

Qu. Look at this compound and give its reported Morningglory plant response rating. FC(F)(F)c1cnc(Oc2ccccc2-n2cc(Cl)cn2)nc1 [Compound 6]
Ans. 0

Qu. # iterate: FC(F)(F)c1ccn(-c2ccccc2Oc2ncc(Br)cn2)n1 [Compound 1]
Ans. 0

Qu. # iterate: FC(F)(F)c1cnc(Oc2ccccc2-n2cc(C(F)(F)F)cn2)nc1 [Compound 17]
Ans. 0

---

# Tested on: chickweed
# ASSAY TEXT: Test C postemergence
# Assay type: in vivo, Stellaria media
# CONDITION INFO: 16 g ai/ha, postemergence; visual rating, scale 0 to 100 (0 no effect, 100 complete control), 13 to 15 days
MEASURED QUANTITY: Chickweed plant response rating

Field: example entries. Status: answers known.
1. N#Cc1cccc(Oc2ncc(Br)cn2)c1-n1cc(I)cn1 5
2. CCOc1cn(-c2c(Br)cccc2Oc2ncc(Cl)cn2)nn1 10
3. N#Cc1cnn(-c2c(C#N)cccc2Oc2ncc(F)cn2)c1 50
4. N#Cc1cccc(Oc2ncc(F)cn2)c1-n1cc(I)cn1 40
5. CCOc1cnn(-c2c(C#N)cccc2Oc2ncc(F)cn2)c1 20

Now let's try a different one.
Qu. Look at this compound and give its reported Chickweed plant response rating. "Clc1cnc(Oc2cccc(Br)c2-n2cc(Br)cn2)nc1"
Ans. 60

---

# Test system: field poppy
# ASSAY TEXT: Test D preemergence
# Format: in vivo, Papaver rhoeas
# CONDITION INFO: Papaver rhoeas, pre-emergence, 125 g ai/ha, scale 0-100, read-out: Plant response rating, Field Poppy
MEASURED QUANTITY: pest or weed control at 125 g/ha
Include the unit after the number when you answer.

Field: example entries. Status: answers known.
1. Clc1cnc(Oc2ccccc2-n2cc(Br)cn2)nc1 60%
2. N#Cc1cccc(Oc2ncc(Br)cn2)c1-n1cc(C(F)(F)F)cn1 100%
3. N#Cc1cccc(Oc2ncc(Cl)cn2)c1-n1cc(C(F)(F)F)cn1 100%

Now let's try a different one.
Qu. Look at this molecule and give its reported pest or weed control at 125 g/ha. "FC(F)(F)c1cnn(-c2ccccc2Oc2ncc(Br)cn2)c1"
Ans. 95%

---

# System: corn
# ASSAY TEXT: Test A preemergence
# Type: in vivo, Zea mays
# CONDITION INFO: 500 g ai/ha, 0 to 100 scale, 0 no effect, 100 complete control, approx. 10 days
For each record, check the reported Corn plant response rating: if it is below 30 write true (1), else write false (0).

Consider the worked cases shown below.
1) CCOc1cnn(-c2c(C#N)cccc2Oc2ncc(Cl)cn2)c1 false (0)
2) Cc1nn(-c2ccccc2Oc2ncc(Cl)cn2)cc1Cl true (1)
3) Clc1cnc(Oc2ccccc2-n2cc(Cl)cn2)nc1 true (1)

Qu. is_below(Corn plant response rating, 30) for "FC(F)(F)c1cccc(Oc2ncc(Cl)cn2)c1-n1cc(Br)cn1" ?
Ans. false (0)

Qu. # iterate: "N#Cc1cccc(Oc2ncc(F)cn2)c1-n1cc(Br)cn1"
Ans. false (0)

---

# System: Italian ryegrass
# ASSAY TEXT: Test A preemergence
# Type: in vivo, Lolium multiflorum
# CONDITION INFO: 125 g ai/ha, 0 to 100 scale where 0 is no effect and 100 is complete control
// reported Plant response rating, Ryegrass, Italian for each item listed
Give the figure only, with no unit attached.

Field: example entries. Status: answers known.
MOLECULE	Plant response rating, Ryegrass, Italian
FCc1cccc(Oc2ncc(Br)cn2)c1-n1cc(C(F)(F)F)cn1 [Compound 120]	30
N#Cc1cccc(Oc2ncc(Br)cn2)c1-n1cc(I)cn1 [Compound 88]	20
FC(F)(F)COc1cnn(-c2ccccc2Oc2ncc(Cl)cn2)c1 [Compound 138]	0

Qu. Look at this molecule and give its reported Plant response rating, Ryegrass, Italian. CCOc1cn(-c2c(Br)cccc2Oc2ncc(Cl)cn2)nn1 [Compound 84]
Ans. 0

Qu. # iterate: FCc1cccc(Oc2ncc(Br)cn2)c1-n1cc(Br)cn1 [Compound 125]
Ans. 20

Qu. # iterate: Fc1cnc(Oc2cccc(Cl)c2-n2cc(OCC(F)(F)F)cn2)nc1 [Compound 109]
Ans. 0

Qu. # iterate: Fc1cccc(Oc2ncc(Cl)cn2)c1-n1cc(C2CCCC2)nn1 [Compound 106]
Ans. 0

Qu. # iterate: CC(C)Oc1cnn(-c2c(Cl)cccc2Oc2ncc(Cl)cn2)c1 [Compound 103]
Ans. 0

---

# Test system: velvetleaf
# ASSAY TEXT: Test E preemergence
# Type: in vivo, Abutilon theophrasti
# CONDITION INFO: 125 g ai/ha, scale 0 to 100, 0 no effect, 100 complete control
MEASURED QUANTITY: Plant response rating, Velvetleaf
Give the figure only, with no unit attached.

Field: example entries. Status: answers known.
1) N#Cc1cccc(Oc2ncc(Cl)cn2)c1-n1cc(C(F)(F)F)cn1 100
2) Fc1cccc(Oc2ncc(Cl)cn2)c1-n1cc(I)cn1 100
3) N#Cc1cnn(-c2c(C#N)cccc2Oc2ncc(F)cn2)c1 75

Qu. Look at this molecule and give its reported Plant response rating, Velvetleaf. "CCOc1cnn(-c2c(C#N)cccc2Oc2ncc(F)cn2)c1"
Ans. 90

Qu. # iterate: "N#Cc1cccc(Oc2ncc(F)cn2)c1-n1cc(Cl)cn1"
Ans. 70

Qu. # iterate: "N#Cc1cccc(Oc2ncc(F)cn2)c1-n1cc(I)cn1"
Ans. 80

---

// reported Ragweed plant response rating for each item listed
# Test system: ragweed
# ASSAY TEXT: Test A preemergence
# Format: in vivo, Ambrosia elatior
# CONDITION INFO: 500 g ai/ha, 0 to 100 scale where 0 is no effect and 100 is complete control

Field: example entries. Status: answers known.
1) COc1cnn(-c2c(C#N)cccc2Oc2ncc(Cl)cn2)c1 60
2) CCCOc1cnn(-c2c(C#N)cccc2Oc2ncc(Cl)cn2)c1 70
3) CS(=O)(=O)c1cccc(Oc2ncc(Cl)cn2)c1-n1cc(Br)cn1 20
4) Cc1cnc(Oc2cccc(C#N)c2-n2cc(I)cn2)nc1 100

Qu. Look at this compound and give its reported Ragweed plant response rating. "FC(F)(F)Sc1cnn(-c2ccccc2Oc2ncc(Cl)cn2)c1"
Ans. 10

Qu. # iterate: "CCCc1cnc(Oc2cccc(C#N)c2-n2cc(Br)cn2)nc1"
Ans. 0

Qu. # iterate: "N#Cc1cccc(Oc2ncc(Cl)cn2)c1-n1cnc(C(F)(F)F)c1"
Ans. 100

---

# System: waterhemp
# ASSAY TEXT: Test E preemergence
# Type: in vivo, Amaranthus rudis
# CONDITION INFO: 31 g ai/ha, scale 0 to 100 (0 no effect, 100 complete control)
MEASURED QUANTITY: Waterhemp plant response rating
Give the figure only, with no unit attached.

Field: example entries. Status: answers known.
1. N#Cc1cnn(-c2c(C#N)cccc2Oc2ncc(F)cn2)c1 65
2. FCc1cccc(Oc2ncc(Cl)cn2)c1-n1cc(Cl)cn1 0
3. FC(F)(F)COc1cnn(-c2ccccc2Oc2ncc(Cl)cn2)c1 100

Qu. Look at this compound and give its reported Waterhemp plant response rating. "N#Cc1cccc(Oc2ncc(F)cn2)c1-n1cc(I)cn1"
Ans. 70

Qu. # iterate: "FC(F)(F)c1cnn(-c2ccccc2Oc2ncc(Br)cn2)c1"
Ans. 100

---

// reported Foxtail, Giant plant response rating for each item listed
# Test system: giant foxtail
# ASSAY TEXT: Test C preemergence
# Type: in vivo, Setaria faberii
# CONDITION INFO: 62 g ai/ha, preemergence; scale 0 (no effect) to 100 (complete control)

Field: example entries. Status: answers known.
1. N#Cc1cnn(-c2c(C#N)cccc2Oc2ncc(F)cn2)c1 100
2. N#Cc1cccc(Oc2ncc(F)cn2)c1-n1cc(I)cn1 100
3. CCOc1cnn(-c2c(C#N)cccc2Oc2ncc(F)cn2)c1 100
4. Clc1cnc(Oc2cccc(Br)c2-n2cc(Br)nn2)nc1 100

Qu. Look at this molecule and give its reported Foxtail, Giant plant response rating. "COc1cnn(-c2c(C#N)cccc2Oc2ncc(Cl)cn2)c1"
Ans. 60

---

// reported Lambsquarters plant response rating for each item listed
# Tested on: lambsquarters
# ASSAY TEXT: Test C preemergence
# Format: in vivo, Chenopodium album
# CONDITION INFO: 125 g ai/ha, preemergence; scale 0 (no effect) to 100 (complete control)
Give the figure only, with no unit attached.

1. N#Cc1cnn(-c2c(C#N)cccc2Oc2ncc(F)cn2)c1 100
2. N#Cc1cccc(Oc2ncc(F)cn2)c1-n1cc(Cl)cn1 98
3. FCc1cccc(Oc2ncc(F)cn2)c1-n1cc(C(F)(F)F)cn1 100
4. N#Cc1cn(-c2c(Br)cccc2Oc2ncc(Cl)cn2)nn1 100

Qu. Look at this compound and give its reported Lambsquarters plant response rating. "Cc1cnc(Oc2cccc(C#N)c2-n2cc(I)cn2)nc1"
Ans. 100

Qu. # iterate: "N#Cc1cnn(-c2c(Oc3ncc(Cl)cn3)cccc2C(F)F)c1"
Ans. 100

Qu. # iterate: "FC(F)(F)c1cnn(-c2ccccc2Oc2ncc(Cl)cn2)c1"
Ans. 80

Qu. # iterate: "Clc1cnc(Oc2cccc(Br)c2-n2cc(Br)nn2)nc1"
Ans. 100

Qu. # iterate: "FC(F)(F)c1cnn(-c2c(Cl)cccc2Oc2ncc(Cl)cn2)c1"
Ans. 100
